- experiment.description: Oral bioavailability in rat at 1 mg/kg
- Format: ADME, organism-based
- condition.summary: in vivo
measurement.kind: bioavailability (%)
Entry rule: numbers only, all in %.

# compound `CCC(CC)c1ccc(Cl)c2nc(Oc3c(C)cc(Cl)cc3Cl)n(C)c12` ; its bioavailability = 30.8
